B1: TMEM106C (parent)
chain: TVPEILVHNIVIFMRTSVKISYIG

Variants of: B1
Test: protein stability index of a GFP-peptide fusion (GPS, HEK-293T) (PSI 1-6); higher = more stable;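 further: lentivirally expressed fusions sorted by FACS into six bins by GFP to DsRed ratio, PSI derived from sequencing read proportions per bin multiplied by bin number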
Settings: c terminus: a fixed tail appended
The label depends only on protein stability index: True if it is at least 3, False if it is smaller.

| MUTANT CODE | CLASSIFICATION |
| --- | --- |
| V18Y | True |
| E4S | False |
| F13D | False |
| N9F | False |
| F13G | True |
| I5F | True |
| L6E | False |
| V7F | False |
| I10Y | False |
| S17M | False |
| F13N | True |
| I12D | True |
| I23H | False |
| I20D | True |
| S21C | False |
| R15V | True |
| V2C | False |
| V2E | False |
| R15M | True |
| I23W | True |
| L6Y | False |
| N9K | False |
| N9M | True |
| H8I | False |
| I20Y | True |
| I23Y | True |
| I12E | True |
| G24E | True |
| S17D | False |
| L6T | False |
| V11F | True |
| V11N | False |
| I5K | False |
| Y22F | False |
| T16S | False |
| I10N | False |
| M14W | False |
| V18G | False |
